This collection of values is drawn from ChEMBL document CHEMBL4513216.

- PROCEDURE SUMMARY: Toxicity liver stage against HepG2, at 10uM
- Type: cell-based
- Parameters: test concentration 10 uM, cell line HepG2-A16-CD81EGFP
- APPLIED CONDITIONS: human, HepG2-A16-CD81EGFP cells; read-out: INHIBITION
MEASURE: cytotoxicity at 10 µM (%)

> print(dat)
                                    compound  obs.value
 1  O=C(NCC1CC1)C1CCC2(CCN(C(=O)c3ccccn3)CC2)O1 (centres undefined)       9.74
 2  O=C(NCc1cc[nH]n1)N(CCCO)C1CCc2ccccc21 (centres undefined)      -3.27
 3  O=C(O)c1cc(-c2ccoc2)cc(S(=O)(=O)NCc2ccccn2)c1      -47.6
 4  CC(C)Cc1nc(CN2CCc3onc(-c4cccc(F)c4)c3C2)no1        2.3
 5  CN1CCC(c2nnc3n2CCN(S(=O)(=O)c2ccccc2Cl)C3)CC1       2.58
 6                Fc1cnccc1CN1CCC2(CCNCC2)C1       -123
 7  O=C(NCC1CCOC1)c1csc(-c2ccc(Cl)cc2)n1 (centres undefined)      -11.6
 8  Cc1nc(C2CCCN2C(=O)COCCOc2ccccc2)no1 (centres undefined)      -5.82
 9  O=C(c1ccco1)N1CCO[C@@H]2CN(c3ccccn3)CC[C@@H]2C1       9.43
10  CC(=O)N1CC2(CCN(Cc3ccc(Cl)cc3)C2)Cc2ccccc21 (centres undefined)       7.74
11  N#Cc1cccc(N2CCOCC3(CCCN(C(=O)NC4CC4)C3)C2)c1 (centres undefined)       14.1
12     CC(=O)NCCNC(=O)c1cc(COc2ccccc2)[nH]n1      -1.32
13        O=C(NCCCn1ccnc1)c1cccnc1OCC(F)(F)F       6.58
14     CCN1CCN(C)C2(CCN(Cc3ccc(C)o3)CC2)C1=O       -7.1
15  CCC(O)CN1CCN(C(=O)Cc2cc(Cl)ccc2OC)CC1 (centres undefined)      -10.4
16  Cc1cc(C(=O)N2CCc3nnc(N(C)C)cc3C2)c(C)n1C1CC1       1.56
17  CC(C)Nc1nc2c(c(N(C)C)n1)CCN(Cc1nccn1C)CC2       1.35
18  Cc1cccnc1CNc1cc(N2CCCC2CO)ncn1 (centres undefined)      -10.3
19  CC(=O)N1CCN(CCNC(=O)c2nc3ccccc3c(=O)[nH]2)CC1       6.45
20  Cc1ncc2c(n1)CN(C(C(N)=O)c1ccc(F)cc1)CC2 (centres undefined)      -1.01
21  CCc1nc(CN(C(C)=O)C2CCN(CCc3cccs3)C2)no1 (centres undefined)      -4.62
22  COc1ccccc1CC(NC(=O)N1CCOCC1)C(C)C (centres undefined)       4.29
23  CCC(=O)N1CCC(Cc2ccccc2-c2ccccc2F)(C(N)=O)C1 (centres undefined)      -10.8
24  O=C(c1cc(Cn2ccc3ccccc32)[nH]n1)N1CCC[C@H]1CO      -1.99
